System: CU-ACC2
Test: AC50 viability; higher = less potent
Settings: 48 h
Mark each entry YES if its AC50 viability sits below 8 µM, and NO for all others.

C[C@@]12OC(=O)[C@@]1(NC(=O)[C@@H]2CCCl)[C@@H](O)[C@H]\3CCC\C=C3
YES
COC1=C(OCCCN2CCOCC2)C=C3N=CC=C(OC4=CC=C(C=C4F)\C5=C\N=C(\NC6=CC=C(F)C=C6)N(C)C5=O)C3=C1
NO
COc1ccc(-c2c(-c3ccc(O)cc3O)n[nH]c2C)cc1
YES
NC(=O)Nc1cc(-c2cccc(F)c2)sc1C(=O)N[C@H]1CCCNC1
NO
Cc1cc2cc(Oc3ccnc(Nc4cccc(C[S+](=O)([O-])NCCN(C)C)c4)n3)ccc2[nH]1
NO
CNC(=O)c1ccc(Nc2ncc(C(F)(F)F)c(NCc3nccnc3N(C)[S+](C)(=O)[O-])n2)cc1
YES
CCN1CCN(Cc2ccc(Nc3ncc(F)c(-c4cc(F)c5nc(C)n(C(C)C)c5c4)n3)nc2)CC1
NO
CC(C)(O)CC(=O)NCCn1ccc2ncnc(Nc3ccc(Oc4cccc(C(F)(F)F)c4)c(Cl)c3)c21
NO
C[S+](=O)([O-])c1cccc(CNc2nc(Nc3ccc4c(c3)CCC(=O)N4)ncc2C(F)(F)F)c1
NO
COc1cc2nc(-c3cc(F)ccc3O)nc(N[C@@H]3CNC[C@H]3C(C)(C)O)c2cc1OC
YES
N[C@@H](Cc1ccc(N(CCCl)CCCl)cc1)C(=O)O
NO
N/C(=N\C(=O)c1nc(Cl)c(N)nc1N)NCc1ccccc1
NO
C[C@@H]1O[C@@H](O[C@H]2C[C@@H](O)[C@]3(CO)[C@H]4[C@H](O)C[C@]5(C)[C@H](CC[C@]5(O)[C@@H]4CC[C@]3(O)C2)C/6=C/C(=O)OC6)[C@H](O)[C@H](O)[C@H]1O
YES
c1ccc2c(-c3cnn4cc(-c5ccc(N6CCNCC6)cc5)cnc34)ccnc2c1
YES
COc1cc(OC)c(NC(=O)Nc2cc(C)on2)cc1Cl
NO
CC(N[C@H]1CCCC[C@@H]1NC(=O)c1ccc(Cl)cc1)c1cccc2ccccc12 (some centres not stated)
NO
C[C@@H](NCc1cc2ccccc2[nH]1)c1cccc2ccccc12
NO
